# assay procedure: Rifalazil solubility in surfactants and surfactant mixtures
# Format: physicochemical
# condition details: Formulation M6 (excipient blend), aqueous with cosolvent or surfactant or cyclodextrin, thermodynamic from solid; in Formulation M6; 24 hrs equilibration
property label: solubility at 24 h (mg/mL)
// note: answer is a bare numeric in mg/mL

Exam item: GET /values?readout=solubility at 24 h&item= CO[C@H]1/C=C/O[C@@]2(C)Oc3c(C)c(O)c4c(=O)c(c5oc6cc(N7CCN(CC(C)C)CC7)cc(O)c6nc-5c4c3C2=O)NC(=O)/C(C)=C\C=C\[C@H](C)[C@H](O)[C@@H](C)[C@@H](O)[C@@H](C)[C@H](OC(C)=O)[C@@H]1C
Marked response: 30.8

----------
# assay procedure: Rifalazil solubility in surfactants and surfactant mixtures
# Format: physicochemical
# condition details: Formulation M1 (excipient blend), aqueous with cosolvent or surfactant or cyclodextrin, thermodynamic from solid; in Formulation M1; 24 hrs equilibration
property label: solubility at 24 h (mg/mL)
// note: answer is a bare numeric in mg/mL

Exam item: GET /values?readout=solubility at 24 h&item= CO[C@H]1/C=C/O[C@@]2(C)Oc3c(C)c(O)c4c(=O)c(c5oc6cc(N7CCN(CC(C)C)CC7)cc(O)c6nc-5c4c3C2=O)NC(=O)/C(C)=C\C=C\[C@H](C)[C@H](O)[C@@H](C)[C@@H](O)[C@@H](C)[C@H](OC(C)=O)[C@@H]1C [Rifalazil]
Marked response: 15.5

----------
# assay procedure: Rifalazil solubility in surfactants and surfactant mixtures
# Type: physicochemical
# condition details: aqueous with cosolvent or surfactant or cyclodextrin, thermodynamic from solid; in Cremophor RH40; 24 hrs equilibration at 37° C.
property label: solubility at 24 h (mg/mL)
// note: answer is a bare numeric in mg/mL

Exam item: GET /values?readout=solubility at 24 h&item= CO[C@H]1/C=C/O[C@@]2(C)Oc3c(C)c(O)c4c(=O)c(c5oc6cc(N7CCN(CC(C)C)CC7)cc(O)c6nc-5c4c3C2=O)NC(=O)/C(C)=C\C=C\[C@H](C)[C@H](O)[C@@H](C)[C@@H](O)[C@@H](C)[C@H](OC(C)=O)[C@@H]1C [Rifalazil]
Marked response: 23

----------
# assay procedure: Rifalazil solubility in surfactants and surfactant mixtures
# Format: physicochemical
# condition details: aqueous with cosolvent or surfactant or cyclodextrin, thermodynamic from solid; in Cremophor ELP; 24 hrs equilibration at 37° C.
property label: solubility at 24 h (mg/mL)
// note: answer is a bare numeric in mg/mL

Exam item: GET /values?readout=solubility at 24 h&item= CO[C@H]1/C=C/O[C@@]2(C)Oc3c(C)c(O)c4c(=O)c(c5oc6cc(N7CCN(CC(C)C)CC7)cc(O)c6nc-5c4c3C2=O)NC(=O)/C(C)=C\C=C\[C@H](C)[C@H](O)[C@@H](C)[C@@H](O)[C@@H](C)[C@H](OC(C)=O)[C@@H]1C
Marked response: 35

----------
# assay procedure: Rifalazil solubility in surfactants and surfactant mixtures
# Format: physicochemical
# condition details: Formulation M3 (excipient blend), aqueous with cosolvent or surfactant or cyclodextrin, thermodynamic from solid; in Formulation M3; 24 hrs equilibration
# Procedure: The solubility of rifalazil in various surfactants and surfactant mixtures was measured. Excess Rifalazil, drug substance, was equilibrated with the excipient or excipient blend at the indicated temperature for 24 hrs under constant mixing. At the end of the equilibration time, insoluble drug was removed by centrifugation and the supernatant was assayed by UV spectroscopy and/or HPLC to determine the concentration of Rifalazil.
property label: solubility at 24 h (mg/mL)
// note: answer is a bare numeric in mg/mL

Exam item: GET /values?readout=solubility at 24 h&item= CO[C@H]1/C=C/O[C@@]2(C)Oc3c(C)c(O)c4c(=O)c(c5oc6cc(N7CCN(CC(C)C)CC7)cc(O)c6nc-5c4c3C2=O)NC(=O)/C(C)=C\C=C\[C@H](C)[C@H](O)[C@@H](C)[C@@H](O)[C@@H](C)[C@H](OC(C)=O)[C@@H]1C
Marked response: 25.8
